These entries and their values trace back to ChEMBL document CHEMBL1144601.

# Tested on: HepG2
# assay overview: Antiproliferative activity against human HepG2 cells by MTT assay
# Assay type: functional, cell-based
outcome measure: IC50 (µM)

> print(dat)
                                   compound  scale.unit  quantitative.readout
1  Cc1ccc(-c2cc(CN3CC4CCC(C3)N4Cc3ccnc(-c4ccc(C)cc4)c3)ccn2)cc1          µM                     7
2  Oc1ccc(-c2cc(CN3CC4CCC(C3)N4Cc3ccnc(-c4ccc(O)cc4)c3)ccn2)cc1          µM                    13
3  c1ccc(-c2ccc(CN3CC4CCC(C3)N4Cc3ccc(-c4ccccc4)cc3)cc2)cc1          µM                    45
4             O=C1C2CCC(N2)C(=O)N1Cc1ccccc1          µM                    92
5  CC(=O)Nc1cccc(-c2cc(CN3CC4CCC(C3)N4Cc3ccnc(-c4cccc(NC(C)=O)c4)c3)ccn2)c1          µM                    43
6  c1ccc2c(CN3CC4CCC(C3)N4Cc3cccc4ccccc34)cccc2c1          µM                    18
7  COc1cc(-c2cc(CN3CC4CCC(C3)N4Cc3ccnc(-c4cc(OC)c(OC)c(OC)c4)c3)ccn2)cc(OC)c1OC          µM                     8
8  Clc1ccc(-c2cc(CN3CC4CCC(C3)N4Cc3ccnc(-c4ccc(Cl)cc4)c3)ccn2)cc1          µM                     9

1. c1ccc(-c2cc(CN3CC4CCC(C3)N4Cc3ccnc(-c4ccccc4)c3)ccn2)cc1
2. COc1ccc(-c2cc(CN3CC4CCC(C3)N4Cc3ccnc(-c4ccc(OC)cc4)c3)ccn2)cc1
Incoming: Of 1 and 2 , which one carries the higher reported IC50? Lab log: write the label of the selected item as the result.
Outgoing: 1
(1: 11 µM, 2: 3 µM)

====

# Tested on: DU-145
# assay overview: Antiproliferative activity against human DU145 cells by MTT assay
# Format: functional, cell-based
outcome measure: IC50 (µM)

I. CC(=O)Nc1cccc(-c2cc(CN3CC4CCC(C3)N4Cc3ccnc(-c4cccc(NC(C)=O)c4)c3)ccn2)c1
II. O=[N+]([O-])c1cccc(-c2cc(CN3CC4CCC(C3)N4Cc3ccnc(-c4cccc([N+](=O)[O-])c4)c3)ccn2)c1
Incoming: Of I and II , which one carries the higher reported IC50? Lab log: write the label of the selected item as the result.
Outgoing: II
(II: 85 µM, I: 24 µM)

====

# Test system: DU-145
# assay overview: Antiproliferative activity against human DU145 cells by MTT assay
# Format: functional, cell-based
outcome measure: IC50 (µM)

// solved cases for IC50 follow
> print(dat)
                                   compound  scale.unit  quantitative.readout
1  Sc1ncnc2nc[nH]c12 [MERCAPTOPURINE ANHYDROUS]          µM                     2
2  COc1cccc(-c2cc(CN3CC4CCC(C3)N4Cc3ccnc(-c4cccc(OC)c4)c3)ccn2)c1          µM                     9
3  c1ccc2c(c1)ccc1c(CN3CC4CCC(C3)N4Cc3cccc4c3ccc3ccccc34)cccc12          µM                    41
4  COc1cc(-c2cc(CN3CC4CCC(C3)N4Cc3ccnc(-c4cc(OC)c(OC)c(OC)c4)c3)ccn2)cc(OC)c1OC          µM                    14
5  Cc1cccc(-c2cc(CN3CC4CCC(C3)N4Cc3ccnc(-c4cccc(C)c4)c3)ccn2)c1          µM                    34

I. COc1ccc(-c2cc(CN3CC4CCC(C3)N4Cc3ccnc(-c4ccc(OC)cc4)c3)ccn2)cc1
II. Cc1ccc(-c2cc(CN3CC4CCC(C3)N4Cc3ccnc(-c4ccc(C)cc4)c3)ccn2)cc1
III. CC(=O)Nc1ccc(-c2cc(CN3CC4CCC(C3)N4Cc3ccnc(-c4ccc(NC(C)=O)cc4)c3)ccn2)cc1
Incoming: Ascending sort, IC50. In your reply, arrange the labels in the requested order.
Outgoing: I, II, III

a. c1ccc2c(CN3CC4CCC(C3)N4Cc3cccc4ccccc34)cccc2c1
b. Clc1ccc(-c2cc(CN3CC4CCC(C3)N4Cc3ccnc(-c4ccc(Cl)cc4)c3)ccn2)cc1
Incoming: Of a and b , which one carries the higher reported IC50? Lab log: write the label of the selected item as the result.
Outgoing: a
